Here, each record is paired with measured pIC50 data.
# Tested System: 5-lipoxygenase (Rattus norvegicus, UniProt P12527)
# Construct: supernatant fraction of Rat Basophilic Leukemia Cell Homogenate (RBL-1) serves as a 5-lipoxygenase enzyme source; endogenous in cells; host or cells: RBL-1 (rat basophilic leukemia) cell homogenate, 100,000 x g supernatant
# Sequence (P12527 whole entry): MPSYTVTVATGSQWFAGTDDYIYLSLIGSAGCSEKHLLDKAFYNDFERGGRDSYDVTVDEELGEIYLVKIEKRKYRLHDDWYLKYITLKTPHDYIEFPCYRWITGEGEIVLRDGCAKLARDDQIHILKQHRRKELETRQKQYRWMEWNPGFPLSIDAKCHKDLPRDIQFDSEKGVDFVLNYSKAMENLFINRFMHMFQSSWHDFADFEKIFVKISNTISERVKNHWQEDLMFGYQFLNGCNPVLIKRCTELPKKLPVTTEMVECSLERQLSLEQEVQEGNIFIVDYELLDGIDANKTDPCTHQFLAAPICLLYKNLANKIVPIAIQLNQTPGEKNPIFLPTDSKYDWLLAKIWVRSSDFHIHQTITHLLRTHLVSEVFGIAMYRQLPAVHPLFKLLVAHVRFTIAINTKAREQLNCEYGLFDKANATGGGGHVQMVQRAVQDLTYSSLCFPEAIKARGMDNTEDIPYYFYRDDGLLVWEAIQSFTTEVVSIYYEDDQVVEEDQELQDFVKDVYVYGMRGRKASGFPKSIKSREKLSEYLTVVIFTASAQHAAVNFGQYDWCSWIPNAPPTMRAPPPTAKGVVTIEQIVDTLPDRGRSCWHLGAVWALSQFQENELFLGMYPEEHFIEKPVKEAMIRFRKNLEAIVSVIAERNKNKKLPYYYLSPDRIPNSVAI
# Experiment Description: Inhibition of 5-lipoxygenase, in vitro (5-HETE synthesis, RBL-1 100,000 x g supernatant)
# Type: biochemical
# Settings: RBL-1 homogenate supernatant
pIC50: −log10 of the molar value.
Parameter: pIC50

INSERT INTO measurements (compound, tested_system, observed) VALUES
  ('CN(CCc1ccccn1)C(=O)CCSCCSc1cc(C(C)(C)C)c(O)c(C(C)(C)C)c1', '5-lipoxygenase (Rattus norvegicus, UniProt P12527)', 6.80),
  ('CC(=O)c1ccc(N2CCN(C(=O)CS[C@H](C)[C@H](C)Sc3cc(C(C)(C)C)c(O)c(C(C)(C)C)c3)CC2)cc1 (relative stereo)', '5-lipoxygenase (Rattus norvegicus, UniProt P12527)', 6.77),
  ('C[C@H](Sc1cc(C(C)(C)C)c(O)c(C(C)(C)C)c1)[C@@H](C)OCC(=O)N1CCN(Cc2ccccc2)CC1 (relative stereo)', '5-lipoxygenase (Rattus norvegicus, UniProt P12527)', 6.34),
  ('CC(C)(C)c1cc(SCCSCCC(=O)N2CCC(N3CCCCC3)CC2)cc(C(C)(C)C)c1O', '5-lipoxygenase (Rattus norvegicus, UniProt P12527)', 6.82),
  ('C[C@H](Sc1cc(C(C)(C)C)c(O)c(C(C)(C)C)c1)[C@@H](C)SCC(=O)NCc1ccncc1 (relative stereo)', '5-lipoxygenase (Rattus norvegicus, UniProt P12527)', 6.70);

###

# Tested System: 5-lipoxygenase (Rattus norvegicus)
# Construct: supernatant fraction of Rat Basophilic Leukemia Cell Homogenate (RBL-1) serves as a 5-lipoxygenase enzyme source; endogenous in cells
# Experiment Description: Inhibition of 5-lipoxygenase, in vitro (5-HETE synthesis, RBL-1 100,000 x g supernatant)
# Settings: RBL-1 homogenate supernatant
pIC50: −log10 of the molar value.
Parameter: pIC50

INSERT INTO assay_data (compound, parameter, observed) VALUES
  ('CN1CCN(C(=O)CSCCSc2cc(C(C)(C)C)c(O)c(C(C)(C)C)c2)CC1 [Example 20]', 'pIC50', 6.40),
  ('CC(C)(C)c1cc(SCCSCC(=O)NCc2ccccn2)cc(C(C)(C)C)c1O [Example 13]', 'pIC50', 6.80),
  ('CC(C)(C)c1cc(SCCSCC(=O)NCc2cccnc2)cc(C(C)(C)C)c1O [Example 15]', 'pIC50', 6.89),
  ('C[C@H](Sc1cc(C(C)(C)C)c(O)c(C(C)(C)C)c1)[C@@H](C)OCC(=O)N(C)CCc1ccccn1 (relative stereo) [Example 14]', 'pIC50', 6.66);

The values you see were collected from patent US5342838A.
